# Experimental system: T1, human TfR apical domain (human)
# T1 chain: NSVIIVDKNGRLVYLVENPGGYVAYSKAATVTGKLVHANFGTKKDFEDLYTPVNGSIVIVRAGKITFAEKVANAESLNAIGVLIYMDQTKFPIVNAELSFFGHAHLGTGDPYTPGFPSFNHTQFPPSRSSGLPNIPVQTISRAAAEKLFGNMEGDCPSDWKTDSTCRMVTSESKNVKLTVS
# Test name: SPR
pKd: −log10 of the molar value.

- Binder: "35.d1.5 (protein) ASTKGPSVFPLAPSSKSTSGGTAALGCLVKDYFPEPVTVSWNSGALTSGVHTFPAVLQSSGLYSLSSVVTVPSSSLGTQTYICNVNHKPSNTKVDKKVEPKSCDKTHTCPPCPAPELLGGPSVFLFPPKPKDTLMISRTPEVTCVVVDVSHEDPEVKFNWYVDGVEVHNAKTKPREEQYNSTYRVVSVLTVLHQDWLNGKEYKCKVSNKALPAPIEKTISKAKGQPREPQVYTLPPSRDELTKNQVSLTCLVKGFYPSDIAVEWESYGNEWSSYKTTPPVLDSDGSFFLYSKLTVSKSEWQQGFVFSCSVMHEALHNHYTQKSLSLSPELQLEESCAEAQDGELDGLWTT"
  pKd: 4.87
- Binder: "35.d1.12 (protein) ASTKGPSVFPLAPSSKSTSGGTAALGCLVKDYFPEPVTVSWNSGALTSGVHTFPAVLQSSGLYSLSSVVTVPSSSLGTQTYICNVNHKPSNTKVDKKVEPKSCDKTHTCPPCPAPELLGGPSVFLFPPKPKDTLMISRTPEVTCVVVDVSHEDPEVKFNWYVDGVEVHNAKTKPREEQYNSTYRVVSVLTVLHQDWLNGKEYKCKVSNKALPAPIEKTISKAKGQPREPQVYTLPPSRDELTKNQVSLTCLVKGFYPSDIAVEWESFGTEWSNYKTTPPVLDSDGSFFLYSKLTVSKSEWQQGFVFSCSVMHEALHNHYTQKSLSLSPELQLEESCAEAQDGELDGLWTT"
  pKd: 5.80
- Binder: "35.d1.2 (protein) ASTKGPSVFPLAPSSKSTSGGTAALGCLVKDYFPEPVTVSWNSGALTSGVHTFPAVLQSSGLYSLSSVVTVPSSSLGTQTYICNVNHKPSNTKVDKKVEPKSCDKTHTCPPCPAPELLGGPSVFLFPPKPKDTLMISRTPEVTCVVVDVSHEDPEVKFNWYVDGVEVHNAKTKPREEQYNSTYRVVSVLTVLHQDWLNGKEYKCKVSNKALPAPIEKTISKAKGQPREPQVYTLPPSRDELTKNQVSLTCLVKGFYPSDIAVEWESYGTEWTSYKTTPPVLDSDGSFFLYSKLTVTKSEWQQGFVFSCSVMHEALHNHYTQKSLSLSPELQLEESCAEAQDGELDGLWTT"
  pKd: 5.37
